# Test System: T1, O11-AA
# T1 chain: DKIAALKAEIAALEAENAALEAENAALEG
# Assay Protocol: two-hybrid library CCmax;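 further: natural log of median RNA to DNA barcode read ratio; higher means stronger binding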
# Run Conditions: mean of both orientations
With a cut-off of -0.9, any interaction score strictly below it is called YES; any interaction score meeting it or above is called NO.

>>> print(df.to_string())
                                      binder  category
 0   DEIAALEAEIAALEAKIAALKAENAALEG [4H43-AA]       YES
 1  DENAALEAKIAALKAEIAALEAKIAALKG [4H1350-AA]        NO
 2    KELQAIEKQLAQLQWKAQARKKKLAQLKK [4H_APH]       YES
 3  DENAALEAENAALEAKIAALKAEIAALEG [4H1193-AA]       YES
 4  DKIAALKAKIAALKAEIAALEAKNAALKG [4H2888-AA]        NO
 5  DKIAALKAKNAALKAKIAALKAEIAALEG [4H3049-AA]        NO
 6  DKIAALKAENAALEAENAALEAEIAALEG [4H2705-AA]       YES
 7  DKNAALKAEIAALEAKIAALKAEIAALEG [4H3625-AA]       YES
 8  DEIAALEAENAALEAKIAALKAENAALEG [4H171-AA]       YES
 9  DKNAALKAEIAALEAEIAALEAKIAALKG [4H3590-AA]        NO
10  DEIAALEAKIAALKAKNAALKAKNAALKG [4H384-AA]        NO
11  DENAALEAKIAALKAKIAALKAKNAALKG [4H1392-AA]        NO
12  DKIAALKAEIAALEAKNAALKAKIAALKG [4H2622-AA]        NO
13  DKNAALKAEIAALEAEIAALEAENAALEG [4H3587-AA]       YES
14  DKIAALKAENAALEAKIAALKAKNAALKG [4H2736-AA]        NO
15    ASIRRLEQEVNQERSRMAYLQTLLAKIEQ [4H_BCR]       YES
